# Test system: RARa homodimer (NR concentration 270 nM)
# PROTOCOL DETAILS: PBM binding z-score (relative to random genomic background probes); higher = stronger binding; sequences stand for … in GC…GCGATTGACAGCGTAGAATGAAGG
READOUT: PBM binding z-score

1. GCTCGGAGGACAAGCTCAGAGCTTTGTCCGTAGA
-1.84
2. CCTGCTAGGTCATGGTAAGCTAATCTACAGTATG
-0.305
3. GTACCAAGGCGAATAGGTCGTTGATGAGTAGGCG
-0.623
4. CCTTACGGGTCACTGACAGTTTATAGCATTTGGA
1
5. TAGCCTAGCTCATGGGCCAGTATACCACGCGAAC
-0.475

====

# System: PPARg:RXRa IVT, anti-PPARg (NR concentration 270 nM, RXRa partner concentration 90 nM)
# PROTOCOL DETAILS: PBM binding z-score (relative to random genomic background probes); higher = stronger binding; sequences stand for … in GC…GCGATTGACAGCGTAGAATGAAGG
Assign class by PBM binding z-score: not lower than 2 means criterion met; lower than 2 means criterion not met.

1) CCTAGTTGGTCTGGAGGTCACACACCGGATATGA
criterion met
2) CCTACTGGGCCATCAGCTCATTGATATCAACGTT
criterion met
3) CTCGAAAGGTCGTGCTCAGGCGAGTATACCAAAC
criterion not met
4) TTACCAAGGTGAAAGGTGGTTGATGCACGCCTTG
criterion met
5) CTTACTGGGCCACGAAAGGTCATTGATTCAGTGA
criterion met
6) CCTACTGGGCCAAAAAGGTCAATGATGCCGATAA
criterion met
7) CCTACTGGGCCAAGGGCATTGATCAGTCAAAGCA
criterion met
8) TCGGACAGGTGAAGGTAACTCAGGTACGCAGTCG
criterion not met
9) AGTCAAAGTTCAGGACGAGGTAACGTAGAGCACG
criterion met
10) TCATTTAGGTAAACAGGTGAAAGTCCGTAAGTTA
criterion met
11) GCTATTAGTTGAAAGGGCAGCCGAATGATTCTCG
criterion not met
12) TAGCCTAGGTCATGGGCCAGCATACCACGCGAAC
criterion met
13) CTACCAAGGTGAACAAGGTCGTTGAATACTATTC
criterion met
14) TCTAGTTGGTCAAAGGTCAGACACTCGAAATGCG
criterion met
15) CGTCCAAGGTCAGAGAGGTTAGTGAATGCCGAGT
criterion met
16) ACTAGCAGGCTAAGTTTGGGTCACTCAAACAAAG
criterion not met
17) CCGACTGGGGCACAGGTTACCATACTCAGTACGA
criterion met
18) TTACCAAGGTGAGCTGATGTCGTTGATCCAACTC
criterion not met
19) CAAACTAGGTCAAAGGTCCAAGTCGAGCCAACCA
criterion met
20) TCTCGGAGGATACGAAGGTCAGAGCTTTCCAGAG
criterion not met

====

This section presents sequences with their documented PBM binding z-score values.
# Tested on: RARa homodimer (NR concentration 270 nM)
# PROTOCOL DETAILS: PBM binding z-score (relative to random genomic background probes); higher = stronger binding; sequences stand for … in GC…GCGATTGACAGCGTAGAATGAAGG
READOUT: PBM binding z-score

1) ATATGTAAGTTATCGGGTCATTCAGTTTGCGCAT
1.29
2) TCAGACAGGTGAAGGTCACTCAGGTACGCAGTCG
0.971
3) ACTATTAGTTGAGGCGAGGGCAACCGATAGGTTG
0.393
4) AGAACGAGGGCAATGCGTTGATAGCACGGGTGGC
-0.114
5) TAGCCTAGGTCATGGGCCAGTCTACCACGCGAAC
-0.257
6) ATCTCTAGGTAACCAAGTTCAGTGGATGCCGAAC
0.529
7) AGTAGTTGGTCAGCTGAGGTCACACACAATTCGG
1.53
8) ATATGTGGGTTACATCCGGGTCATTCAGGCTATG
1.06
9) CAAACTTGGTCAAGAGGTCAAAGTCCGCTTCCCG
1.11
10) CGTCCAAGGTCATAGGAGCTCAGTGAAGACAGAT
0.0934
11) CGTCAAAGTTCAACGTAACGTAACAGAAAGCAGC
1.3
12) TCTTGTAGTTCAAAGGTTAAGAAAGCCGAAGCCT
0.439
13) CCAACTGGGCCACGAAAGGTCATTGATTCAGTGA
1.12
14) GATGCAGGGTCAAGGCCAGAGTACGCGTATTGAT
0.306
15) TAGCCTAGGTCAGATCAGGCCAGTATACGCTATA
-0.581
16) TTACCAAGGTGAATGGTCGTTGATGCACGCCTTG
0.953
17) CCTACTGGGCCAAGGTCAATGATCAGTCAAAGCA
0.147

====

# System: PPARg DBDmut IVT, anti-PPARg (DBD mutation: PPARg1 K132A/R137A, NR concentration 270 nM)
# PROTOCOL DETAILS: PBM binding z-score (relative to random genomic background probes); higher = stronger binding; sequences stand for … in GC…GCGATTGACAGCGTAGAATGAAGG
READOUT: PBM binding z-score

1. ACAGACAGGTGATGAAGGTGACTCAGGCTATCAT
0.382
2. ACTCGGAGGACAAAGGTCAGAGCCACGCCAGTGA
0.0578
3. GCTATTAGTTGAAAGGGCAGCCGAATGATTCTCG
-0.14
4. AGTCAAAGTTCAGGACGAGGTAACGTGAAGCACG
0.0315
5. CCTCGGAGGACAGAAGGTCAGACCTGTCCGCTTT
-2.09
6. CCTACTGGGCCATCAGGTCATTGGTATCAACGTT
-0.269
7. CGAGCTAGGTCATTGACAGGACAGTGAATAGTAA
-0.146
8. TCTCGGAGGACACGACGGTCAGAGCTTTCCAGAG
-0.952
9. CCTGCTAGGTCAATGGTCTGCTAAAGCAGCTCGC
-0.86
10. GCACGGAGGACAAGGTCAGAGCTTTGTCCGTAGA
-1.21
11. CCGACTGGGACAAGGTTACCATAACGCACAGCCA
-0.958
12. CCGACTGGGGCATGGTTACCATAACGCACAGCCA
-0.933
13. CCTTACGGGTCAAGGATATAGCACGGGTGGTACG
-0.469
14. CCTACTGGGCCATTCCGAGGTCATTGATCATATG
-0.485
15. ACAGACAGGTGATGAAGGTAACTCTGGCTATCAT
0.0262
16. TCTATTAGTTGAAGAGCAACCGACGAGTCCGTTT
0.372
17. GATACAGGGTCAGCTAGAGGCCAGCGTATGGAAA
-0.347
18. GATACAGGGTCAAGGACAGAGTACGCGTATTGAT
0.618
19. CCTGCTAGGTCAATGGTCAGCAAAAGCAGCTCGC
-0.782
20. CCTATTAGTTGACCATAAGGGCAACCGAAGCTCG
0.387
21. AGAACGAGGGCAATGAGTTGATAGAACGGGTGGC
-0.194
22. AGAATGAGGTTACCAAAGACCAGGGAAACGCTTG
0.62
23. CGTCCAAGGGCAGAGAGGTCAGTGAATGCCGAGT
-1.28
24. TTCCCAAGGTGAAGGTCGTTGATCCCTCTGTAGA
-0.23
25. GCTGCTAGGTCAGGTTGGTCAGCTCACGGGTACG
-0.956
26. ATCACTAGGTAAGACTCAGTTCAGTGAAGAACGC
1.07
27. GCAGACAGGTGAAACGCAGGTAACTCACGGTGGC
-0.094
28. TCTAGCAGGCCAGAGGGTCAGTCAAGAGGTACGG
-1.25
29. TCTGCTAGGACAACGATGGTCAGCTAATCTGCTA
-0.587
30. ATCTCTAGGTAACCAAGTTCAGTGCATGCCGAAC
0.732
31. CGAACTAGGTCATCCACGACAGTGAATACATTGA
5.31
32. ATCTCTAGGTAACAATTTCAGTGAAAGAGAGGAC
1.6
33. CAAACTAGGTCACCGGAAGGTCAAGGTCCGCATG
0.589
34. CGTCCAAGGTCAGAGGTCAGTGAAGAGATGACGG
-0.499
35. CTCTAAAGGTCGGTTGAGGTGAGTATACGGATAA
0.0389
36. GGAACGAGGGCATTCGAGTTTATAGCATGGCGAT
-0.834
37. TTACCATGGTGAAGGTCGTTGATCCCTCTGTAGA
-0.462
38. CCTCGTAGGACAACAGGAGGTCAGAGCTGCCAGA
-1.38
39. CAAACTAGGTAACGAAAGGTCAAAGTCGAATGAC
1.33
